Assayed System: BACE1 endogenous to primary cortical neurons from E16.5 CD1 mice (mouse, UniProt P56818 46-501)
Sequence (P56818 46-501): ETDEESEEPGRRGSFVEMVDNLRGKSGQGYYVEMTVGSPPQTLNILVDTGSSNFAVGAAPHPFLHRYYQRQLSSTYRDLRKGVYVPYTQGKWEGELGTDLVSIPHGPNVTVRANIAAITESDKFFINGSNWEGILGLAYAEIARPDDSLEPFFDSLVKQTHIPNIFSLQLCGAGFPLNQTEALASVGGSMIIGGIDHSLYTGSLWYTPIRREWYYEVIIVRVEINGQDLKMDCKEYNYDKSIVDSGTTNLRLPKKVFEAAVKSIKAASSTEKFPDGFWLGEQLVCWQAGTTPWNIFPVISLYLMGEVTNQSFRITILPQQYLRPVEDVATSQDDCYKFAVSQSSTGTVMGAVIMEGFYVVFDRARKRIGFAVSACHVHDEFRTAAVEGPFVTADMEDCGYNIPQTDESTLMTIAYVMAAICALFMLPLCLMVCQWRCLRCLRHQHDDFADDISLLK
Measurement Description: cell-based or functional assay
Endpoint: max % inhibition, Abeta x-40 in mouse cortical neurons (%)
Your answer should be a plain number; it is taken to be in %.

Binder	Experimental Value
5571 (antibody, V domains shown) VH: QVQLVQSGAEVKKPGSSVKVSCKASGGTFSSYAISWVRQAPGQGLEWMGNIIPIFGTANYAQKFQGRVTITADESTSTAYMELSSLRSEDTAVYYCARSGGTKYGMLDVWGQGTVVTVSS VL: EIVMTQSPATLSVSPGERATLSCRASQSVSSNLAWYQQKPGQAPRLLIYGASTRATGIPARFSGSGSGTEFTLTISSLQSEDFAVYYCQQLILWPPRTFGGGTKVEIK	84
5536 (antibody, V domains shown) VH: QVQLVQSGAEVKKPGSSVKVSCKASGGTFSSYAISWVRQAPGQGLEWMGSIIPIFGTANYAQKFQGRVTITADESTSTAYMELSSLRSEDTAVYYCARSGGTKYGMLDVWGQGTMVTVSS VL: EIVMTQSPATLSVSPGERATLSCRASQSVGSNLAWYQQKPGQAPRLLIYGASTRATGIPARFSGSGSGTEFTLTISSLQSEDFAVYYCQQSYLWPPRTFGGGTKVEIK	84

Could you now consider this next binder?
Reported max % inhibition, Abeta x-40 in mouse cortical neurons for 5543 (antibody, V domains shown) VH: QLQLQESGPGLVKPSETLSLTCTVSGGSISSSSYYWGWIRQPPGKGLEWIGSIYYSGSTYYNPSLKSRVTISVDTSKNQFSLKLSSVTAADTAVYYCARVGHGISYFDLWGRGTLVTVSS VL: EIVLTQSPATLSLSPGERATLSCRASQSVSSYLAWYQQKPGQAPRLLIYDASNRATGIPARFSGSGSGTDFTLTISSLEPEDFAVYYCQQAYVWPPRTFGGGTKVEIK : what is it?
65
